experiment: folding enthalpy; higher = less favourable; fluorescence melt of hairpins on a sequencing array, two-state fit; conditions: sodium 0.088 M
result.type: folding enthalpy

Tell me the measured folding enthalpy of GATTTGGGAAACCAAACC (.(((((....))))).) , please. -19.4 kcal/mol

Tell me the measured folding enthalpy of GCGACAATTCGC ((((....)))) , please. -17.2 kcal/mol

Tell me the measured folding enthalpy of GATCTGGCGTCAGATC ((((((....)))))) , please. -31.8 kcal/mol

###

experiment: folding enthalpy; higher = less favourable; fluorescence melt of hairpins on a sequencing array, two-state fit; conditions: sodium 0.088 M
result.type: folding enthalpy (kcal/mol)
Report as a plain number; the unit kcal/mol is understood.

Tell me the measured folding enthalpy of GGCAACGAAAGTTGGGCC ((((((....)))..))) , please. -16.9

Tell me the measured folding enthalpy of GCCCGCGGAAACGCGAGC ((.((((....)))).)) , please. -17.3

Tell me the measured folding enthalpy of GCATTGCGAAAGCGAGGC ((.(.((....)).).)) , please. -21

Where these numbers come from: the array DNA melting data of Ke et al. (doi:10.1101/2024.01.08.574731)
